Assay: The drug is tested on Z-021 corresponding to metagenome with ENA study accession number: PRJEB37062 and ENA sample accession number: ERS12561820 for biotransformation under anaerobic condition. The drug concentrations were measured over 9 timepoints collected between 0 and 24 hours of incubation by liquid-chromatography-coupled mass spectrometry (LC–MS); note: call rule not given here
Details: 2 µM
assay-endpoint: Bacterial Biotransformation

Here are 7 compounds together with their reported answers.
compound	Bacterial Biotransformation
Cc1nc2n(c(=O)c1CCN1CCC(c3noc4cc(F)ccc34)CC1)CCCC2O (stereo not drawn)	Compound metabolized
CCN(CC)CCNC(=O)c1cc(Cl)c(N)cc1OC [METOCLOPRAMIDE]	Compound NOT metabolized
CC(=O)OCC(=O)[C@@]12N=C(C)O[C@@H]1C[C@H]1[C@@H]3CCC4=CC(=O)C=C[C@]4(C)[C@H]3[C@@H](O)C[C@@]12C	Compound metabolized
COc1ccc(CCN(C)CCCC(C#N)(c2ccc(OC)c(OC)c2)C(C)C)cc1OC (stereo not drawn)	Compound NOT metabolized
CC(=O)CC(c1ccccc1)c1c(O)c2ccccc2oc1=O (stereo not drawn)	Compound NOT metabolized
CC[C@H](C)C(=O)O[C@H]1C[C@@H](C)C=C2C=C[C@H](C)[C@H](CC[C@@H]3C[C@@H](O)CC(=O)O3)[C@H]21	Compound metabolized
CN1C(C(=O)Nc2ccccn2)=C(O)c2sccc2S1(=O)=O	Compound metabolized

Pending compound:
Please report the recorded Bacterial Biotransformation for CN1CC(=O)N2[C@H](c3ccc4c(c3)OCO4)c3[nH]c4ccccc4c3C[C@@H]2C1=O .
Compound metabolized

----------
Details: human gut metagenome, 24 h, 2 µM
assay-endpoint: Bacterial Biotransformation

compound	measured-result
CC(C)NCC(O)c1ccc(NS(C)(=O)=O)cc1 (stereo not given)	Compound NOT metabolized
CCC(=O)NCC[C@@H]1CCc2ccc3c(c21)CCO3	Compound NOT metabolized
Nc1c2c(nc3ccccc13)CCCC2	Compound metabolized
C[C@@H]1CC[C@H]2[C@@H](C)C(=O)O[C@@H]3O[C@@]4(C)CC[C@@H]1[C@]32OO4	Compound metabolized
COc1ccc2[nH]c([S+]([O-])Cc3ncc(C)c(OC)c3C)nc2n1 (stereo not given)	Compound metabolized
COc1ccccc1N1CCN(CC(O)COc2cccc3ccccc23)CC1 (stereo not given)	Compound NOT metabolized

Looking for the measured Bacterial Biotransformation of CCCC(=O)Nc1ccc(OCC(O)CNC(C)C)c(C(C)=O)c1 (stereo not given) , can you help?
Compound metabolized

Name the recorded Bacterial Biotransformation for O=C1NCC2(CCN(CCc3ccccc3)CC2)O1 [FENSPIRIDE] .
Compound NOT metabolized

Need Bacterial Biotransformation, item COc1ccccc1OCC(O)COC(N)=O (stereo not given)
Compound NOT metabolized

Reported Bacterial Biotransformation, compound COc1ccc(CCN(C)CCCC(C#N)(c2ccc(OC)c(OC)c2)C(C)C)cc1OC (stereo not given) : ____
Compound metabolized

----------
Assay: The drug is tested on WLS-007 corresponding to human gut metagenome with ENA study accession number: PRJEB37062 and ENA sample accession number: ERS12561742 for biotransformation under anaerobic condition. The drug concentrations were measured over 9 timepoints collected between 0 and 24 hours of incubation by liquid-chromatography-coupled mass spectrometry (LC–MS)
Conditions: 2 µM
assay-endpoint: Bacterial Biotransformation

molecule	assay-endpoint	measured-result
CN1C(=O)CC(C)(c2ccccc2)C1=O (centres undefined) [METHSUXIMIDE]	Bacterial Biotransformation	Compound NOT metabolized
CN1CCN(CC/C=C2/c3ccccc3Sc3ccc(S(=O)(=O)N(C)C)cc32)CC1	Bacterial Biotransformation	Compound NOT metabolized
CN(C)C(=O)C(CCN1CCC(O)(c2ccc(Cl)cc2)CC1)(c1ccccc1)c1ccccc1 [LOPERAMIDE]	Bacterial Biotransformation	Compound metabolized
CC[C@H](C)C(=O)O[C@H]1C[C@@H](C)C=C2C=C[C@H](C)[C@H](CC[C@@H]3C[C@@H](O)CC(=O)O3)[C@H]21	Bacterial Biotransformation	Compound NOT metabolized
NC12CC3CC(CC(C3)C1)C2	Bacterial Biotransformation	Compound NOT metabolized
CCC(=O)NCC[C@@H]1CCc2ccc3c(c21)CCO3	Bacterial Biotransformation	Compound NOT metabolized

Reported Bacterial Biotransformation, molecule Cc1ccccc1N1C(=O)c2cc(S(N)(=O)=O)c(Cl)cc2NC1C (centres undefined) : ____
Compound NOT metabolized

# Bacterial Biotransformation lookup, item O=c1[nH]c2ccccc2n1CCCN1CCC(n2c(=O)[nH]c3cc(Cl)ccc32)CC1
Compound NOT metabolized

Quick check: Bacterial Biotransformation of CCCc1nc2c(C)cc(-c3nc4ccccc4n3C)cc2n1Cc1ccc(-c2ccccc2C(=O)O)cc1 ?
Compound metabolized

The measured values listed here are drawn from ChEMBL document CHEMBL5724914.
